Tested on: blackgrass
Assay: Test D preemergence
Assay type: in vivo, Alopecurus myosuroides
Conditions: Alopecurus myosuroides, pre-emergence, 125 g ai/ha, scale 0-100, read-out: Plant response rating, Blackgrass
PROPERTY MEASURED: pest or weed control at 125 g/ha (%)
Give just the number in %; leave the unit off.

> print(dat)
                                   compound  reported.result
1  N#Cc1cccc(Oc2ncc(Br)cn2)c1-n1cc(C(F)(F)F)cn1 [Compound 59]               70

Prompt line: Hi! What's the reported pest or weed control at 125 g/ha for N#Cc1cccc(Oc2ncc(Cl)cn2)c1-n1cc(C(F)(F)F)cn1 [Compound 58] on blackgrass?
Response line: 100

Prompt line: What about Fc1cccc(Oc2ncc(Cl)cn2)c1-n1cc(Br)cn1 [Compound 178] ?
Response line: 85

Prompt line: What about FC(F)(F)c1cn(-c2ccccc2Oc2ncc(Cl)cn2)nn1 [Compound 166] ?
Response line: 95

----------
System: morningglory
Experiment: Test E preemergence
Assay type: in vivo, Ipomoea coccinea
Details: 62 g ai/ha, scale 0 to 100 (0 no effect, 100 complete control)
Below, each of the molecules is paired with its reported Morningglory plant response rating value.

// below: answered molecules
> print(dat)
                                   molecule                   property.measured  reported.result
1  FC(F)(F)c1cnn(-c2ccccc2Oc2ncc(Cl)cn2)c1 [Compound 16]  Morningglory plant response rating                0
2  Clc1cnc(Oc2ccccc2-n2cc(Br)cn2)nc1 [Compound 7]  Morningglory plant response rating                0
3  N#Cc1cccc(Oc2ncc(Br)cn2)c1-n1cc(C(F)(F)F)cn1 [Compound 59]  Morningglory plant response rating               65

Then this molecule:
Prompt line: Fill blank: measured Morningglory plant response rating of the molecule FC(F)c1cccc(Oc2ncc(Cl)cn2)c1-n1cc(Br)cn1 [Compound 194] is ____.
Response line: 0

----------
Tested on: waterhemp
Assay: Test C postemergence
Type: in vivo, Amaranthus rudis
Details: 16 g ai/ha, postemergence; 0 is no effect, 100 is complete control
PROPERTY MEASURED: Plant response rating (0 to 100), Waterhemp
Answer using only a numeral; do not append any unit.

// below: answered molecules
> print(dat)
                                   molecule  reported.result
1  CC(=NO)c1cn(-c2c(Br)cccc2Oc2ncc(Cl)cn2)nn1 [Compound 115]               30
2  Cc1cnc(Oc2cccc(C#N)c2-n2cc(I)cn2)nc1 [Compound 136]               40
3  N#Cc1cn(-c2c(Br)cccc2Oc2ncc(Cl)cn2)nn1 [Compound 116]               65

Then this molecule:
Prompt line: Hi! What's the reported Plant response rating (0 to 100), Waterhemp for Clc1cnc(Oc2cccc(Br)c2-n2cc(Br)nn2)nc1 [Compound 129] on waterhemp?
Response line: 65

----------
Below, each of the compounds is paired with its reported Sandbur plant response rating value.
Test system: sandbur
Assay: Test E preemergence
Assay type: in vivo, Cenchrus echinatus
Details: 31 g ai/ha, scale 0 to 100 (0 no effect, 100 complete control)

// below: answered compounds
> print(dat)
                                   compound              property.measured  reported.result
1  N#Cc1cccc(Oc2ncc(F)cn2)c1-n1cc(Cl)cn1 [Compound 73]  Sandbur plant response rating               20
2  N#Cc1cccc(Oc2ncc(Cl)cn2)c1-n1cc(C(F)(F)F)cn1 [Compound 58]  Sandbur plant response rating               20
3  Clc1cnc(Oc2ccccc2-n2cc(Br)cn2)nc1 [Compound 7]  Sandbur plant response rating                0

Prompt line: Fill blank: measured Sandbur plant response rating of the compound FC(F)(F)c1cnn(-c2ccccc2Oc2ncc(Cl)cn2)c1 [Compound 16] is ____.
Response line: 20

Prompt line: What about CCOc1cnn(-c2c(C#N)cccc2Oc2ncc(F)cn2)c1 [Compound 89] ?
Response line: 0
